# target-of-assay: basic fibroblast growth factor (FGF-2) binding to heparin
# protocol: Inhibition of 125I-bFGF binding to heparin-BSA conjugate
# test-conditions: retro-inverso peptides; read-out: IC50 for Inhibition of Binding
pIC50: −log10 of the molar value. Square brackets hold non-standard residues; d marks the D form. Peptide text beside a SMILES is read from it. Mpa = O=C(O)CCS

compound	pIC50
C[C@@H](NC(=O)CCS)C(=O)N[C@H](C)C(=O)N[C@H](CO)C(=O)N[C@H](Cc1c[nH]c2ccccc12)C(=O)N[C@H](Cc1c[nH]cn1)C(=O)N[C@H](CO)C(=O)N[C@H](Cc1c[nH]c2ccccc12)C(=O)NCC(=O)N[C@H](C)C(=O)N[C@H](CCC(N)=O)C(=O)N[C@H](CCCCN)C(=O)N[C@H](C)C(=O)N[C@H](CCCNC(=N)N)C(=O)N[C@H](CCCCN)C(N)=O [Peptide 525, ri-amKRAKQAGWSHWSAAtc] ([Mpa][dA][dA][dS][dW][dH][dS][dW]G[dA][dQ][dK][dA][dR][dK]-NH2)	6.55

* * *

# target-of-assay: laminin binding to heparin
# protocol: Inhibition of 125I-laminin binding to heparin-BSA
# Set-up: species or system mouse
# test-conditions: Table 2, free peptide
Peptide text beside a SMILES is read from it.
Measured IC50 accompanies every entry in the list below.
quantity-measured: IC50 (µM)

compound	relation-qualifier	measured-result
CC(C)[C@H](NC(=O)[C@H](CO)NC(=O)[C@@H](N)CS)C(=O)N[C@H](C(=O)N[C@@H](CS)C(=O)NCC(=O)O)[C@@H](C)O [Peptide 187, CSVTCG] (H-CSVTCG-OH)	=	3
CC(C)[C@H](NC(=O)[C@H](CO)NC(=O)[C@H](CS)NC(=O)[C@H](CO)NC(=O)[C@@H](N)CO)C(=O)N[C@H](C(=O)O)[C@@H](C)O [Peptide 238, SSCSVT] (H-SSCSVT-OH)	>	200
CC(C)[C@H](NC(=O)[C@H](CO)NC(=O)[C@@H](N)CS)C(=O)N[C@H](C(=O)O)[C@@H](C)O [Peptide 234, CSVT] (H-CSVT-OH)	>	200
C[C@@H](O)[C@H](NC(=O)[C@H](CO)NC(=O)[C@H](CS)NC(=O)[C@H](CO)NC(=O)[C@@H](NC(=O)[C@H](Cc1c[nH]c2ccccc12)NC(=O)[C@H](CCC(=O)O)NC(=O)[C@H](CO)NC(=O)[C@H](Cc1c[nH]c2ccccc12)NC(=O)[C@@H]1CCCN1C(=O)[C@@H](N)CO)[C@@H](C)O)C(=O)N[C@@H](CO)C(=O)O [Peptide 184, SPWSEWTSCSTS] (H-SPWSEWTSCSTS-OH)	=	36
N[C@@H](CO)C(=O)N[C@@H](Cc1c[nH]cn1)C(=O)N[C@@H](Cc1c[nH]c2ccccc12)C(=O)N[C@@H](CO)C(=O)N1CCC[C@H]1C(=O)N[C@@H](Cc1c[nH]c2ccccc12)C(=O)N[C@@H](CO)C(=O)N[C@@H](CO)C(=O)O [Peptide 239, SHWSPWSS] (H-SHWSPWSS-OH)	=	11
CC(C)[C@H](N)C(=O)N[C@H](C(=O)N[C@@H](CS)C(=O)NCC(=O)O)[C@@H](C)O [Peptide 203, VTCG] (H-VTCG-OH)	>	200
CC[C@H](C)[C@H](NC(=O)CNC(=O)[C@H](CC(N)=O)NC(=O)CNC(=O)[C@H](CS)NC(=O)[C@H](CO)NC(=O)[C@@H](N)[C@@H](C)O)C(=O)N[C@@H](CCC(N)=O)C(=O)N[C@@H](CCC(N)=O)C(=O)N[C@@H](CCCNC(=N)N)C(=O)O [Peptide 206, TSCGNGIQQR] (H-TSCGNGIQQR-OH)	>	200
CC(C)[C@H](NC(=O)[C@H](CO)NC(=O)[C@H](CS)NC(=O)[C@H](CO)NC(=O)[C@H](CO)NC(=O)[C@H](Cc1c[nH]c2ccccc12)NC(=O)[C@@H]1CCCN1C(=O)[C@H](CO)NC(=O)[C@@H](N)Cc1c[nH]c2ccccc12)C(=O)N[C@H](C(=O)O)[C@@H](C)O [Peptide 241, WSPWSSCSVT] (H-WSPWSSCSVT-OH)	=	34
